# TESTED SYSTEM: RARγ (Homo sapiens, UniProt P13631)
# Sequence (P13631 1-454): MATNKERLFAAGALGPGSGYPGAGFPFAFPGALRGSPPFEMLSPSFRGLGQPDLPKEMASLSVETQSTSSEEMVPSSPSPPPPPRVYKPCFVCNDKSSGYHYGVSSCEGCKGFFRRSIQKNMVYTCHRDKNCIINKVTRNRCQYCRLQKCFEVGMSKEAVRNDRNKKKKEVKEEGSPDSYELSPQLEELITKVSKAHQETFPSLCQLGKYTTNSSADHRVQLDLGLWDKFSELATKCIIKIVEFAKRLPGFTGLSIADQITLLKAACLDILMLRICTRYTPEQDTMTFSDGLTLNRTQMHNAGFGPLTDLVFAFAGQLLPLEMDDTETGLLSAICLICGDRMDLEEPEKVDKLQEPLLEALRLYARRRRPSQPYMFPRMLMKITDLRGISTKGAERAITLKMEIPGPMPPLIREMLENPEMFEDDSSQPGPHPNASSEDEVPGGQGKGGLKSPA
Measured Ki, listed per entry.

Query: Look up and report measured Ki for this entry: `CCOc1cc2c(cc1\C(=C/C=C/C(C)=C/C(=O)O)C(F)(F)F)C(C)(C)CCC2(C)C`
Response: > 10000 nM

Query: Look up and report measured Ki for this entry: CC(/C=C/C=C(c1cc2c(cc1O)C(C)(C)CCC2(C)C)C(F)(F)F)=C\C(=O)O (stereo in doubt)
Response: 496 nM

Query: Look up and report measured Ki for this entry: COc1cc2c(cc1C(=C/C=C/C(C)=C/C(=O)O)C(F)(F)F)C(C)(C)CCC2(C)C (stereo in doubt)
Response: 1200 nM
